Parameter IC50, tested on MLK1 (Homo sapiens, UniProt P80192), listed per item.
Sequence (P80192 144-412 limits assumed, species assumed): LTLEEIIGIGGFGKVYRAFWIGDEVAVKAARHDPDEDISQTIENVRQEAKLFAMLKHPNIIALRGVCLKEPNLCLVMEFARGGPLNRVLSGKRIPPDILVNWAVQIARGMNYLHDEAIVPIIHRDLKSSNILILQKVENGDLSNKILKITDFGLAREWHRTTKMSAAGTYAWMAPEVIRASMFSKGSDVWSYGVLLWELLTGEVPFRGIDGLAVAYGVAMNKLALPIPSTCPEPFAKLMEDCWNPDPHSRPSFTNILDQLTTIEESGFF
Reply with just the number (in nM).

Consider the worked cases shown below.
## Input Report IC50 for COc1ccc2[nH]c3c4c(c5c(c3c2c1)CNC5=O)-c1ccccc1C4 [D, reference compound] please.
## Output 45

## Input Which measured IC50 value corresponds to CC(C)SCc1ccc2c(c1)c1c3c(c4c(c1n2CCCO)Cc1ccccc1-4)C(=O)NC3 [Compound 27] ?
## Output 22

## Input I have this molecule here, O=C1NCc2c1c1c(c3c2c2ccccc2n3CCCO)Cc2ccccc2-1 [Compound B, reference compound] , and I need its recorded IC50.
## Output 31

## Input Which IC50 is reported for this molecule? CC[C@@H](C)OCc1ccc2c(c1)c1c3c(c4c(c1n2CCCO)Cc1ccccc1-4)C(=O)NC3 [Compound 5]
## Output 27

Here is the next item to consider.
## Input May I ask what IC50 has been recorded for CCC(C)OCc1ccc2c(c1)c1c3c(c4c(c1n2CCCO)Cc1ccccc1-4)C(=O)NC3 (centres unmarked) [Compound 4] ?
## Output 15
